Below are IC50 values for human 20 S proteasome (Homo sapiens, UniProt P28074) collected from several publications.
reported property: IC50

{"molecule": "COc1ccc(C[C@H](NC(=O)[C@H](C)NC(=O)CN2CCOCC2)C(=O)N[C@@H](C[C@@H]2CCC(F)(F)C2)C(=O)[C@@]2(C)CO2)cc1", "reported property": "IC50", "endpoint value": "121 µM"}
{"molecule": "Cc1cccc2c(C[C@H](NC(=O)Cc3ccccc3)B(O)O)coc12", "reported property": "IC50", "endpoint value": "0.5 to 5 µM"}
{"molecule": "CCc1cccc(C[C@H](NC(=O)C(Cn2cc(-c3ccccc3)nn2)Cn2ccsc2=O)B(O)O)c1 (some centres unmarked)", "reported property": "IC50", "endpoint value": "< 0.05 µM"}
{"molecule": "CC(CC(=O)c1ccccc1)C(=O)N[C@@H](Cc1ccsc1)B(O)O (mixture of isomers)", "reported property": "IC50", "endpoint value": "> 5 µM"}
{"molecule": "CO[C@H](C(=O)N[C@@H](Cc1coc2ccccc12)B(O)O)c1ccccc1", "reported property": "IC50", "endpoint value": "0.5 to 5 µM"}
